- Tested on: Staphylococcus aureus ATCC 6538
Label rule met when MIC is strictly below 3 µM; at or above that, label rule not met.

smilesStr	labelClass
CC(C)C[C@H](NC(=O)[C@@H](NC(=O)[C@H](CCCCN)NC(=O)[C@H](CO)NC(=O)[C@H](CC(C)C)NC(=O)[C@H](C)NC(=O)[C@H](CCCCN)NC(=O)[C@H](Cc1ccccc1)NC(=O)[C@H](CC(C)C)NC(=O)[C@H](C)NC(=O)CNC(=O)[C@H](CC(C)C)NC(=O)[C@@H](N)Cc1ccccc1)C(C)C)C(=O)O	rule not met
CC(C)C[C@H](NC(=O)[C@H](CC(C)C)NC(=O)[C@H](CCCCN)NC(=O)[C@H](CO)NC(=O)[C@H](CC(C)C)NC(=O)[C@H](C)NC(=O)[C@H](CCCCN)NC(=O)[C@H](C)NC(=O)[C@H](CC(C)C)NC(=O)[C@H](C)NC(=O)CNC(=O)[C@H](CC(C)C)NC(=O)[C@@H](N)Cc1ccccc1)C(=O)O	rule not met
CC(C)C[C@H](NC(=O)[C@H](C)NC(=O)[C@H](CCCCN)NC(=O)[C@H](CCCCN)NC(=O)[C@H](CC(C)C)NC(=O)[C@H](C)NC(=O)[C@H](CCCCN)NC(=O)[C@H](CC(C)C)NC(=O)[C@H](C)NC(=O)[C@H](CCCCN)NC(=O)[C@H](CCCCN)NC(=O)[C@H](CC(C)C)NC(=O)[C@H](C)NC(=O)[C@H](CC(C)C)NC(=O)[C@H](C)NC(=O)[C@@H](N)Cc1ccccc1)C(N)=O	rule met
CC(C)[C@H](NC(=O)[C@H](CCCCN)NC(=O)[C@@H](N)CCCCN)C(=O)N[C@H](C(=O)N[C@@H](Cc1ccccc1)C(=O)N[C@@H](CCCCN)C(=O)N[C@@H](Cc1ccccc1)C(=O)N[C@@H](CCCCN)C(=O)N[C@@H](Cc1ccccc1)C(=O)N[C@@H](CCCCN)C(N)=O)C(C)C	rule met
CSCC[C@H](NC(=O)[C@H](CCC(N)=O)NC(=O)[C@H](CO)NC(=O)CNC(=O)[C@H](CCCCN)NC(=O)[C@@H](N)CCCN=C(N)N)C(=O)NCC(=O)N[C@@H](CCCCN)C(=O)N[C@@H](CCCCN)C(=O)N[C@@H](CS)C(=O)N[C@@H](CCC(=O)O)C(=O)N[C@@H](CS)C(=O)N1CCC[C@H]1C(=O)O	rule not met
CC[C@H](C)[C@H](NC(=O)CN)C(=O)N[C@@H](CCCN=C(N)N)C(=O)N[C@@H](CC(=O)O)C(=O)N[C@H](C(=O)N[C@@H](CC(C)C)C(=O)N[C@@H](CCCCN)C(=O)N[C@@H](Cc1ccc(O)cc1)C(=O)NCC(=O)N[C@@H](CCCCN)C(=O)N1CCC[C@H]1C(=O)N[C@@H](CO)C(N)=O)[C@@H](C)CC	rule not met

====

Lab note: MIC readings collected with Bacillus subtilis ATCC 23857 for the following compounds.
observationType: MIC

compound	result
CSCC[C@H](NC(=O)[C@H](CCCCN)NC(=O)[C@H](Cc1ccc(O)cc1)NC(=O)[C@H](C)NC(=O)[C@H](CCC(=O)O)NC(=O)[C@H](CC(C)C)NC(=O)[C@H](CC(C)C)NC(=O)[C@H](CCCN=C(N)N)NC(=O)[C@H](CC(N)=O)NC(=O)[C@H](C)N)C(=O)N[C@@H](CC(C)C)C(=O)N[C@@H](CC(C)C)C(=O)N[C@@H](CCCCN)C(=O)N[C@@H](Cc1ccccc1)C(=O)N[C@@H](CC(C)C)C(=O)NCC(=O)N[C@@H](CC(N)=O)C(=O)N[C@@H](CC(C)C)C(=O)N[C@@H](CCCN=C(N)N)C(N)=O [ANRLLEAYKMLLKFLGNLR]	1 µM
CC[C@H](C)[C@H](NC(=O)[C@H](CCCCN)NC(=O)[C@H](CCCCN)NC(=O)[C@@H](NC(=O)[C@@H](NC(=O)[C@H](CCCCN)NC(=O)[C@H](CCCCN)NC(=O)[C@@H](NC(=O)[C@@H](NC(=O)[C@H](CCCCN)NC(=O)[C@H](CCCCN)NC(=O)[C@@H](NC(=O)[C@@H](NC(=O)CN)[C@@H](C)CC)[C@@H](C)CC)[C@@H](C)CC)[C@@H](C)CC)[C@@H](C)CC)[C@@H](C)CC)C(=O)O [GIIKKIIKKIIKKI]	2.4 µM
CC[C@H](C)[C@H](NC(=O)CNC(=O)[C@@H](NC(=O)[C@H](CCCCN)NC(=O)[C@H](C)NC(=O)[C@@H](NC(=O)[C@@H](NC(=O)CN)[C@@H](C)CC)[C@@H](C)CC)[C@@H](C)CC)C(=O)N[C@@H](CCCCN)C(=O)N[C@H](C(=O)N[C@@H](CCCCN)C(=O)N[C@@H](CCCCN)C(N)=O)[C@@H](C)CC [GIIAKIGIKIKK]	16 µM

Origin of the recorded values: DBAASP
